- System: 521955-158-R2-J5-PDC complex spheroids, viability;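 further: spheroids also contain HUVEC endothelial cells and mesenchymal stem cells as stroma; compound exposure lasted seven days before the viability read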
- assay.protocol: Anticancer human tumor 521955-158-R2-J5-PDC patient-derived pancreatic carcinoma cell line growth inhibition [RAS]
- condition.notes: second compound 1 µM; first compound 0.1 µM; active compounds read low
- From the text: RAS pathway inhibitors in Combinations in Complex Spheroids A high-throughput screen of multi-cell type tumor spheroids was designed to identify active combinations of RAS pathway inhibitors and targeted small molecules. Complex spheroids include a stromal component modeled by human endothelial cells (HUVEC) and fibroblasts modeled by human mesenchymal stem cells (MSCs). […] Compounds. […] If the clinical Cmax for an agent had not been determined, the highest concentration tested was 10 microM. […]
Quick list: viability, T/C per entry.
Give your result in % as a bare value.

Examples with answers:
compound	readout.units	viability, T/C
CCN1CCN(Cc2ccc(Nc3ncc(F)c(-c4cc(F)c5nc(C)n(C(C)C)c5c4)n3)nc2)CC1 + C#Cc1c(F)ccc2cc(O)cc(-c3ncc4c(N5CC6CCC(C5)N6)nc(OCC56CCCN5CC(F)C6)nc4c3F)c12	%	45.5
CC(C)NCC(C(=O)N1CCN(c2ncnc3c2C(C)CC3O)CC1)c1ccc(Cl)cc1 (stereo not given) + C#Cc1c(F)ccc2cc(O)cc(-c3ncc4c(N5CC6CCC(C5)N6)nc(OCC56CCCN5CC(F)C6)nc4c3F)c12	%	45.2
C=CC(=O)Nc1cc(Nc2nccc(-c3cn(C)c4ccccc34)n2)c(OC)cc1N(C)CCN(C)C + C#Cc1c(F)ccc2cc(O)cc(-c3ncc4c(N5CC6CCC(C5)N6)nc(OCC56CCCN5CC(F)C6)nc4c3F)c12	%	43.4
CCC(CC)c1cc(NC2CCC(N)C2)n2nccc2n1 (stereo not given) + C#Cc1c(F)ccc2cc(O)cc(-c3ncc4c(N5CC6CCC(C5)N6)nc(OCC56CCCN5CC(F)C6)nc4c3F)c12	%	54.1

Let us move to another entry and its viability, T/C.
Query block: Note viability, T/C for the compound shown: C[C@@H](NC(=O)c1ncnc(N)c1Cl)c1ncc(C(=O)Nc2cc(C(F)(F)F)c(Cl)cn2)s1 + C=CC(=O)N1CCN(c2nc(OCC3CCCN3C)nc3c(F)c(-c4nc(N)cc(C)c4C(F)(F)F)c(Cl)cc23)C(C)C1
Result block: 93.3
